Reported % engagement WAPL_C1133 values for the following compounds.
Target or system: WAPL_C1133 (Homo sapiens, UniProt Q7Z5K2)
Construct: endogenous in cells; host or cells: 22Rv1
Sequence (Q7Z5K2 whole entry): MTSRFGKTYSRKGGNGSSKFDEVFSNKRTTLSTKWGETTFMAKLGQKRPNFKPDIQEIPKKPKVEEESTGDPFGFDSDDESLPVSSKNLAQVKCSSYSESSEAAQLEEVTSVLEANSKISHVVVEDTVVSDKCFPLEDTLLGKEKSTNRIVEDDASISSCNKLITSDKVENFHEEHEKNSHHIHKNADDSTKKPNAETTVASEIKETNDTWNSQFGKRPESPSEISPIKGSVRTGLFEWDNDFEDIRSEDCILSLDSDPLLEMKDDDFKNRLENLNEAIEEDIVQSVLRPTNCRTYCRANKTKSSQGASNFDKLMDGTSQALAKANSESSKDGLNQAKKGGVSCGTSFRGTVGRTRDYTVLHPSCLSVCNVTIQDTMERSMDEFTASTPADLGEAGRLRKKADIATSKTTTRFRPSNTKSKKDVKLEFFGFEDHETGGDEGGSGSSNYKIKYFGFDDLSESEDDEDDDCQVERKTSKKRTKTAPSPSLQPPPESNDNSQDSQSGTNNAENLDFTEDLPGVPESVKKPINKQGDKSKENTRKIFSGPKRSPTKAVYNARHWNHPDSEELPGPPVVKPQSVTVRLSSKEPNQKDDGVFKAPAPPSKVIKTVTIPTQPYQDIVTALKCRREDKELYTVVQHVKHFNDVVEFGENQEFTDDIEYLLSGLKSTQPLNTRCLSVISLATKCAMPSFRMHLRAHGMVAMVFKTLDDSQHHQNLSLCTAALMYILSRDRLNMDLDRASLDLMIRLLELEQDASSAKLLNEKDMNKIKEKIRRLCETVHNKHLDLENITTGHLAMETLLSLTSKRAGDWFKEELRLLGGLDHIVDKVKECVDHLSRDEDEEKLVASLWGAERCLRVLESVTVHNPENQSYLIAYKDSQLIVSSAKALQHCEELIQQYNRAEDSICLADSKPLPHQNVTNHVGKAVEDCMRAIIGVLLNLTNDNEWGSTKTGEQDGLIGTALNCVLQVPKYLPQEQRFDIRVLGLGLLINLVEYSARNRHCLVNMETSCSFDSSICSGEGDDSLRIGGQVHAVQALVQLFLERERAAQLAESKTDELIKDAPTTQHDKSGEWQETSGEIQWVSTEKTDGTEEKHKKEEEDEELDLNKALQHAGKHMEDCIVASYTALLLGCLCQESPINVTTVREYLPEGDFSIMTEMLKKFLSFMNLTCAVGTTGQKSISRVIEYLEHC
Test summary: IA-DTB cysteine engagement
Assay type: binding
Study conditions: 22Rv1 cells, 20 μM probe, 1 h, relative to DMSO

Compound | % engagement WAPL_C1133 / %
C=CC(=O)N1C[C@H](c2ccc(Br)cc2)[C@@H]1C(=O)Nc1cccc2cccnc12 | 34
C=CC(=O)N1C[C@H](c2ccc(Br)cc2)[C@H]1C(=O)Nc1cccc2cccnc12 [MY-3B] | 46
C=CC(=O)N1C[C@@H](c2ccc(Br)cc2)[C@H]1C(=O)Nc1cccc2cccnc12 | 18
C=CC(=O)N1C[C@H](c2ccc(Br)cc2)[C@H]1C(=O)Nc1cccc2cccnc12 [MY-3A] | 78.5
